# Tested on: transglutaminase (TGase)
# measurement description: Measurement of TG (TGase inhibitory activity, monodansyl cadaverine / N,N-dimethylcasein fluorescence, FDSS 3000)
# Type: biochemical
# recorded conditions: TGase inhibitory activity measurement; unit not given
Each entry below carries its reported TGase activity remaining (% of DMSO control = 100).
Keep it simple and answer with nothing but the number.

{"molecule": "c1ccc(NCCOB(c2ccccc2)c2ccc(COCc3ccc(B(OCCNc4ccccc4)c4ccccc4)cc3)cc2)cc1", "tested system": "transglutaminase (TGase)", "value measured": 23}
{"molecule": "CCCCB(CCCC)OC(=O)C(N)Cc1ccccc1 (stereo not drawn)", "tested system": "transglutaminase (TGase)", "value measured": 106}
{"molecule": "Cc1ccc(B(OCCN(C)C)c2ccc(COCc3ccc(B(OCCN(C)C)c4ccc(C)c(Cl)c4)cc3)cc2)cc1Cl", "tested system": "transglutaminase (TGase)", "value measured": 13}
{"molecule": "NCC(OB(c1ccccc1)c1ccc(Oc2ccc(B(OC(CN)c3ccccc3)c3ccccc3)cc2)cc1)c1ccccc1 (stereo not drawn)", "tested system": "transglutaminase (TGase)", "value measured": 43}
{"molecule": "CNCCOB(c1ccccc1)c1ccc(COc2ccc(B(OCCNC)c3ccccc3)cc2)cc1", "tested system": "transglutaminase (TGase)", "value measured": 20}
{"molecule": "NCCOB(c1ccc(COCc2ccc(B(OCCN)c3ccc(C(F)(F)F)cc3)cc2)cc1)c1ccc(C(F)(F)F)cc1", "tested system": "transglutaminase (TGase)", "value measured": 19}

Ask: Read off the recorded TGase activity remaining (% of DMSO control = 100) for OB(c1ccsc1)c1ccc2sc3ccc(B(O)c4ccsc4)cc3c2c1
Result: 61

Ask: Fill in TGase activity remaining (% of DMSO control = 100) for record NC(=O)CCC(N)C(=O)OB(c1ccc(Oc2ccc(B(OC(=O)C(N)CCC(N)=O)c3cccc4ccccc34)cc2)cc1)c1cccc2ccccc12 (stereo not drawn)
Result: 20

Ask: Could you please provide reported TGase activity remaining (% of DMSO control = 100) for CNCCOB(c1ccc(COCc2ccc(B(OCCNC)c3ccc(F)c(F)c3)cc2)cc1)c1ccc(F)c(F)c1 ? Thanks!
Result: 91

Ask: For the molecule COc1ccc(B(OCCN(C)C)c2ccc(COCc3ccc(B(OCCN(C)C)c4ccc(OC)cc4)cc3)cc2)cc1 , report TGase activity remaining (% of DMSO control = 100).
Result: 128

Ask: Answer with the recorded TGase activity remaining (% of DMSO control = 100) of c1ccc(B(OCc2ccccn2)c2cccc(COCc3cccc(B(OCc4ccccn4)c4ccccc4)c3)c2)cc1 only.
Result: 60

Ask: State its TGase activity remaining (% of DMSO control = 100): CCCCNCCOB(c1ccccc1)c1cccc(COCc2cccc(B(OCCNCCCC)c3ccccc3)c2)c1
Result: −4

Ask: Return value of TGase activity remaining (% of DMSO control = 100) for input OB(c1ccccc1)c1ccccc1 , no commentary.
Result: 108

Ask: State, in one line, measured TGase activity remaining (% of DMSO control = 100) of c1ccc(COB(c2ccc(Oc3ccc(B(OCc4ccccn4)c4cccc5ccccc45)cc3)cc2)c2cccc3ccccc23)nc1
Result: 84

Ask: Specify reported TGase activity remaining (% of DMSO control = 100) for the molecule shown: CC(CN)OB(c1ccccc1)c1cccc(COCc2cccc(B(OC(C)CN)c3ccccc3)c2)c1 (stereo not drawn)
Result: 18
